# assay.system: P70S6K (T412E mutant) (Homo sapiens (Human), UniProt P23443, T412E)
# Sequence (P23443 whole entry T412E): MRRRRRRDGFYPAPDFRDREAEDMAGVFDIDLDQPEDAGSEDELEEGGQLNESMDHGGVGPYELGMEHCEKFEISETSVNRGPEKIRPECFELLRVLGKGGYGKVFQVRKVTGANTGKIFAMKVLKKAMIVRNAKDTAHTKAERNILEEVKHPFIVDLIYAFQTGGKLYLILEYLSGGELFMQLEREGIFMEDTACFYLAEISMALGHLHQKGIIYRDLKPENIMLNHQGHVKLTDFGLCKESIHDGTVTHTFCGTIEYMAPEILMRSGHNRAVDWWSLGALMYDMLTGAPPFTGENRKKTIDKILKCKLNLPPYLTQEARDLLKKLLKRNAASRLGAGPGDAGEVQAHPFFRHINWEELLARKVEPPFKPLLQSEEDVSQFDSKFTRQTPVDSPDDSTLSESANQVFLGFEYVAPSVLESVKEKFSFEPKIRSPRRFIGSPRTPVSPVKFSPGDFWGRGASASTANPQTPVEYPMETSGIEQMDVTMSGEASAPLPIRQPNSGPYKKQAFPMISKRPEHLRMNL
# measurement.protocol: P70S6K enzyme assay
# Assay type: biochemical
# condition.description: read-out: IC50 p70S6K
readout.type: IC50 (nM)

molecule | readout.type | numeric.result
COc1cccc(-c2c(N)ncnc2N2CCC(c3nc(-c4ccc(F)c(C(F)(F)F)c4)cn3C)CC2)c1 | IC50 | 9.8
NC(=O)c1c(N)ncnc1N1CCC(c2nc(-c3ccc(F)c(Cl)c3)cn2CCN2CCC2)CC1 | IC50 | 0.9
Cc1cc(-c2cn(CC3CNC3)c(C3CCC(c4ncnc(N)c4C(C)C)CC3)n2)ccc1F (stereo not drawn) | IC50 | 3.4
CCc1c(N)ncnc1N1CCC(c2nc(-c3cnc(N(C)C)nc3)cn2CCN2CCC2)CC1 | IC50 | 310
C=Cc1c(N)ncnc1N1CCC(c2nc(-c3ccc(C(F)(F)F)cc3)cn2CCN2CCCC2)CC1 | IC50 | 10
Cn1cc(-c2ccc(F)c(C(F)(F)F)c2)nc1C1CCN(c2ncnc(N)c2-c2ccc(N)nc2)CC1 | IC50 | 2.3
Nc1cc(N2CCC(c3nc(-c4ccc(F)c(C(F)(F)F)c4)cn3CCN3CCCC3)CC2)ncn1 | IC50 | 50
Nc1ncnc(N2CCC(c3nc(-c4ccc(C(F)(F)F)cc4)cn3CCN3CCCC3)CC2)c1Br | IC50 | 6.2
Cn1cc(-c2ccc(F)c(C(F)(F)F)c2)nc1C1CCN(c2ncnc(N)c2-c2ccccc2F)CC1 | IC50 | 3
CCC(C)(C)NCCn1cc(-c2ccc(F)c(C(F)(F)F)c2)nc1C1CCN(c2ncnc(N)c2C#N)CC1 | IC50 | 1.7
N#Cc1c(N)ncnc1N1CCC(c2nc(-c3ccnc(C(F)(F)F)c3)cn2CCN2CCC2)CC1 | IC50 | 1.5
Cc1cc(-c2cn(CCO)c(C3CCN(c4ncnc(N)c4C(N)=O)CC3)n2)ccc1F | IC50 | 2.8
Nc1ncnc(N2CCC(c3nc(-c4cccc(C(F)(F)F)c4)cn3CCN3CCCC3)CC2)c1C1CCC1 | IC50 | 6.3
CCc1c(N)ncnc1N1CCC(c2nc(-c3ccc(F)c(C(F)(F)F)c3)cn2CCN)CC1 | IC50 | 1.1
Nc1cc(N2CCC(c3nc(-c4ccc(F)c(C(F)(F)F)c4)cn3CCN3CCCCC3)CC2)ncn1 | IC50 | 110
Cn1cc(-c2ccc(F)c(C(F)(F)F)c2)nc1C1CCN(c2ncncc2-c2ccc(F)cc2)CC1 | IC50 | 5.4
CCc1c(N)ncnc1N1CCC(c2nc(-c3ccc(C(F)(F)F)c(F)c3)cn2CCN2CC[C@H](F)C2)CC1 | IC50 | 5.3
CC(C)c1c(N)ncnc1N1CCC(c2nc(-c3ccc(F)c(C(F)(F)F)c3)cn2CCN2CCC2)CC1 | IC50 | 3.6
Nc1ncnc(N2CCC(c3nc(-c4ccc(F)cc4)cn3CCN3CCCC3)CC2)c1C1CCC1 | IC50 | 6.5
CN(C)CCn1cc(-c2ccc(F)c(C(F)(F)F)c2)nc1C1CCN(c2ncnc(N)c2CCC2CC2)CC1 | IC50 | 20
CCc1c(N)ncnc1N1CCC(c2nc(-c3cncc(C)c3)cn2CCN2CCC2)CC1 | IC50 | 84
N#Cc1c(N)ncnc1N1CCC(c2nc(-c3ccc(F)c(C(F)(F)F)c3)cn2CCN2CCC2)CC1 | IC50 | 1.2
Nc1ncnc(N2CCC(c3nc(-c4ccc(F)c(C(F)(F)F)c4)cn3CCN3CCCC3)CC2)c1-c1ccc(F)cc1 | IC50 | 8.2
COc1c(N)ncnc1N1CCC(c2nc(-c3ccc(F)c(C(F)(F)F)c3)cn2C)CC1 | IC50 | 2.1
CCOc1c(N)ncnc1N1CCC(c2nc(-c3ccc(F)c(C)c3)cn2CCN(CC)CC)CC1 | IC50 | 2.4
N#Cc1c(N)ncnc1N1CCC(c2nc(-c3ccoc3)cn2CCN2CCC2)CC1 | IC50 | 11
Cc1cc(-c2cn(CC3CNC3)c(C3CCN(c4ncnc(N)c4OC(C)C)CC3)n2)ccc1F | IC50 | 3.4
Nc1ncnc(N2CCC(c3nc(-c4ccc(Cl)c(F)c4)cn3CCN3CCCC3)CC2)c1Br | IC50 | 3.3
Nc1ncnc(N2CCC(c3nc(-c4ccnc(C(F)(F)F)c4)cn3CCN3CCC3)CC2)c1Cl | IC50 | 1.1
N#Cc1c(N)ncnc1N1CCC(c2nc(-c3ccc(F)c(F)c3)cn2CCN2CCCC2)CC1 | IC50 | 2
